This collection of values is drawn from patent US12054510B2.

Test system: MOLT-4
Assay: Solid tumour and haematological malignancy assay (CellTiterGlo)
Format: cell-based
Details: Homo sapiens, MOLT-4, 72 h, read-out: IC50 (absolute IC50)
assayReadout: IC50

compound	result
C[C@H](NP(=O)(OC[C@@H]1C[C@@H](O)[C@H](n2cnc3c(N)ncnc32)O1)Oc1cccc2ccccc12)C(=O)OCc1ccccc1 (some centres unmarked)	0.1 to 5 µM

# input for lookup
Challenge: What measured IC50 goes with CCOC(=O)CCc1ccccc1OP(=O)(N[C@@H](C)C(=O)OCc1ccccc1)OC[C@@H]1C[C@@H](O)[C@H](n2cnc3c(N)ncnc32)O1 (some centres unmarked) ?
Response given: 0.1 to 5 µM
